# Test system: SW-620
# protocol notes: NCI tumour cell line growth inhibition, 48 h
Activity calls are given as the source filed them. Rule as the data show it: active = GI50 up to about 1.1 µM and inactive = higher.
Respond with a class label; see Yes = active, No = inactive

Sample answers from the record:
O=C(Cl)c1cc([N+](=O)[O-])cc([N+](=O)[O-])c1	No
O=C(Nc1ccc(-c2cn3ccccc3n2)cc1)c1cc(Br)ccc1O	No
CC(=O)NCCSC(=O)c1ccccc1	Yes

Give the logged outcome of this assay for the following compound: "O=C(N/N=C\c1ccc([N+](=O)[O-])cc1)Nc1ccc2ccccc2c1" No

What call does the record list for "CNC(=O)N1CN(c2ccccc2)C2(CCN(Cc3ccccc3)CC2)C1=O" ? No
